Source listed as patent US7030242B2.

Tested on: aggrecanase
Test: Aggrecanase chondrocyte assay (35S-proteoglycan release, IL-1 stimulated)
Type: cell-based, porcine
Details: Table 2; aggrecanase chondrocyte assay; read-out: Agg (aggrecanase IC50 class)
measurement-label: IC50

smiles_entry=Cc1ccccc1COc1ccc(S(=O)(=O)N2CCC[C@](C)(O)[C@@H]2C(=O)NO)cc1 result="0.01 to 0.02 µM"
smiles_entry=CNC(=O)N1CCN(S(=O)(=O)c2ccc(OCc3ccc(F)cc3F)cc2)[C@@H](C(=O)NO)[C@@H]1C result="0.01 to 0.02 µM"
smiles_entry=C[C@@]1(O)CCCN(S(=O)(=O)c2ccc(OCc3ccccc3F)cc2)[C@H]1C(=O)NO result="0.01 to 0.02 µM"
smiles_entry=CNC(=O)N1CCN(S(=O)(=O)c2ccc(OCc3cc(F)ccc3C)cc2)[C@@H](C(=O)NO)[C@@H]1C result="< 0.01 µM"

###

System: aggrecanase
Assay: Aggrecanase chondrocyte assay (35S-proteoglycan release, IL-1 stimulated)
Format: cell-based, porcine
Conditions: Table 2; aggrecanase chondrocyte assay; read-out: Agg (aggrecanase IC50 class)
measurement-label: IC50

compound=Cc1c(F)cccc1COc1ccc(S(=O)(=O)N2CCC[C@@](C)(O)[C@@H]2C(=O)NO)cc1 result="0.01 to 0.02 µM"
compound=C[C@@]1(O)CCCN(S(=O)(=O)c2ccc(OCc3ccc(Cl)cc3Cl)cc2)[C@H]1C(=O)NO result="< 0.01 µM"
compound="Cc1ccccc1COc1ccc(S(=O)(=O)N2CCC[C@@](C)(O)C2C(=O)NO)cc1 (some centres unmarked)" result="< 0.01 µM"
compound=CCc1ccccc1COc1ccc(S(=O)(=O)N2CCN(C(=O)NC)[C@@H](C)[C@@H]2C(=O)NO)cc1 result="< 0.01 µM"
compound=Cc1ccc(Cl)cc1COc1ccc(S(=O)(=O)N2C[C@H](O)CC(C)(C)[C@@H]2C(=O)NO)cc1 result="0.01 to 0.02 µM"
compound=CC1(C)C[C@@H](O)CN(S(=O)(=O)c2ccc(OCc3cc(Cl)ccc3F)cc2)[C@H]1C(=O)NO result="0.01 to 0.02 µM"
compound=Cc1c(F)cccc1COc1ccc(S(=O)(=O)N2C[C@H](O)CC(C)(C)[C@@H]2C(=O)NO)cc1 result="< 0.01 µM"
compound=Cc1ccc(F)cc1COc1ccc(S(=O)(=O)N2CCC[C@@](C)(O)[C@@H]2C(=O)NO)cc1 result="0.01 to 0.02 µM"

###

Target: Human recombinant collagenase-1 (Homo sapiens, UniProt P03956)
Sequence (P03956 100-469): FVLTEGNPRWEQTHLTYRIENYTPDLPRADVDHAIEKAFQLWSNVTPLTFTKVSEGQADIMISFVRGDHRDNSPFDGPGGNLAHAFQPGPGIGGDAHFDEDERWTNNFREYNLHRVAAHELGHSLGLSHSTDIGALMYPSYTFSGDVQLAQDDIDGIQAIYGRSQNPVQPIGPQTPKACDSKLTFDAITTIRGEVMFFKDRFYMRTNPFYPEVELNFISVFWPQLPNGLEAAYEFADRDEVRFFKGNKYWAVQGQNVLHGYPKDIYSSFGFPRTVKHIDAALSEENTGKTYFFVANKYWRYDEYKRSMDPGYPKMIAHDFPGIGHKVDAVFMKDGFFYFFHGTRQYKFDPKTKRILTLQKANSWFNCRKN
Assay: Inhibition of human collagenase-1 (recombinant collagenase-1 assay)
Conditions: Table 2, read-out: MMP-1 (IC50 class)
measurement-label: IC50

compound=Cc1cc(F)ccc1COc1ccc(S(=O)(=O)N2C[C@H](O)CC(C)(C)[C@@H]2C(=O)NO)cc1 tested_system="Human recombinant collagenase-1 (Homo sapiens, UniProt P03956)" result="200 to 1000 nM"
compound=C[C@@]1(O)CCCN(S(=O)(=O)c2ccc(OCc3ccc(F)cc3F)cc2)[C@H]1C(=O)NO tested_system="Human recombinant collagenase-1 (Homo sapiens, UniProt P03956)" result="200 to 1000 nM"
compound=Cc1ccc(Cl)cc1COc1ccc(S(=O)(=O)N2C[C@H](O)CC(C)(C)[C@@H]2C(=O)NO)cc1 tested_system="Human recombinant collagenase-1 (Homo sapiens, UniProt P03956)" result="> 1000 nM"
compound=Cc1c(F)cccc1COc1ccc(S(=O)(=O)N2CCC[C@@](C)(O)[C@@H]2C(=O)NO)cc1 tested_system="Human recombinant collagenase-1 (Homo sapiens, UniProt P03956)" result="> 1000 nM"
compound=C[C@@]1(O)CCCN(S(=O)(=O)c2ccc(OCc3ccccc3F)cc2)[C@H]1C(=O)NO tested_system="Human recombinant collagenase-1 (Homo sapiens, UniProt P03956)" result="20 to 200 nM"
compound=C[C@@]1(O)CCCN(S(=O)(=O)c2ccc(OCc3ccc(F)cc3Cl)cc2)[C@H]1C(=O)NO tested_system="Human recombinant collagenase-1 (Homo sapiens, UniProt P03956)" result="200 to 1000 nM"
compound=Cc1ccccc1COc1ccc(S(=O)(=O)N2CCN(C(=O)CN)[C@@H](C)[C@@H]2C(=O)NO)cc1 tested_system="Human recombinant collagenase-1 (Homo sapiens, UniProt P03956)" result="> 1000 nM"
compound=CC1(C)C[C@@H](O)CN(S(=O)(=O)c2ccc(OCc3ccccc3Br)cc2)[C@H]1C(=O)NO tested_system="Human recombinant collagenase-1 (Homo sapiens, UniProt P03956)" result="200 to 1000 nM"
compound=CCc1ccccc1COc1ccc(S(=O)(=O)N2CCN(C(=O)NC)[C@@H](C)[C@@H]2C(=O)NO)cc1 tested_system="Human recombinant collagenase-1 (Homo sapiens, UniProt P03956)" result="> 1000 nM"
compound=C[C@@]1(O)CCCN(S(=O)(=O)c2ccc(OCc3ccc(Cl)cc3Cl)cc2)[C@H]1C(=O)NO tested_system="Human recombinant collagenase-1 (Homo sapiens, UniProt P03956)" result="200 to 1000 nM"
compound=Cc1cc(F)ccc1COc1ccc(S(=O)(=O)N2CC(=O)N[C@@H](C)[C@@H]2C(=O)NO)cc1 tested_system="Human recombinant collagenase-1 (Homo sapiens, UniProt P03956)" result="> 1000 nM"
compound=Cc1c(F)cccc1COc1ccc(S(=O)(=O)N2C[C@H](O)CC(C)(C)[C@@H]2C(=O)NO)cc1 tested_system="Human recombinant collagenase-1 (Homo sapiens, UniProt P03956)" result="200 to 1000 nM"
compound=C[C@@]1(O)CCCN(S(=O)(=O)c2ccc(OCc3ccc(Cl)cc3F)cc2)[C@H]1C(=O)NO tested_system="Human recombinant collagenase-1 (Homo sapiens, UniProt P03956)" result="20 to 200 nM"
compound=Cc1ccc(F)cc1COc1ccc(S(=O)(=O)N2CC(=O)N[C@@H](C)[C@@H]2C(=O)NO)cc1 tested_system="Human recombinant collagenase-1 (Homo sapiens, UniProt P03956)" result="> 1000 nM"
compound=CC1(C)C[C@@H](O)CN(S(=O)(=O)c2ccc(OCc3cc(Cl)ccc3F)cc2)[C@H]1C(=O)NO tested_system="Human recombinant collagenase-1 (Homo sapiens, UniProt P03956)" result="200 to 1000 nM"
compound=CNC(=O)N1CCN(S(=O)(=O)c2ccc(OCc3ccc(F)cc3F)cc2)[C@@H](C(=O)NO)[C@@H]1C tested_system="Human recombinant collagenase-1 (Homo sapiens, UniProt P03956)" result="200 to 1000 nM"
compound="Cc1ccccc1COc1ccc(S(=O)(=O)N2CCC[C@@](C)(O)C2C(=O)NO)cc1 (stereo partly drawn)" tested_system="Human recombinant collagenase-1 (Homo sapiens, UniProt P03956)" result="200 to 1000 nM"
compound=CC1(C)C[C@@H](O)CN(S(=O)(=O)c2ccc(OCc3ccc(F)cc3Cl)cc2)[C@H]1C(=O)NO tested_system="Human recombinant collagenase-1 (Homo sapiens, UniProt P03956)" result="200 to 1000 nM"

###

Biological target: Human recombinant collagenase-3 (Homo sapiens, UniProt P45452)
Test: Inhibition of human collagenase-3 (recombinant collagenase-3 assay)
Type: biochemical
Details: Table 2; recombinant collagenase-3 assay; read-out: MMP-13 (IC50 class)
pIC50: −log10 of the molar value.
measurement-label: pIC50

compound=Cc1ccc(F)cc1COc1ccc(S(=O)(=O)N2CC(=O)N[C@@H](C)[C@@H]2C(=O)NO)cc1 measurement_label=pIC50 result="7.70 to 8.00"
compound=CC1(C)C[C@@H](O)CN(S(=O)(=O)c2ccc(OCc3ccccc3Br)cc2)[C@H]1C(=O)NO measurement_label=pIC50 result="> 8.00"
compound="Cc1ccccc1COc1ccc(S(=O)(=O)N2CCC[C@@](C)(O)C2C(=O)NO)cc1 (some centres unmarked)" measurement_label=pIC50 result="> 8.00"
compound=Cc1cc(F)ccc1COc1ccc(S(=O)(=O)N2CC(=O)N[C@@H](C)[C@@H]2C(=O)NO)cc1 measurement_label=pIC50 result="7.70 to 8.00"
compound=CCc1ccccc1COc1ccc(S(=O)(=O)N2CCN(C(=O)NC)[C@@H](C)[C@@H]2C(=O)NO)cc1 measurement_label=pIC50 result="6.70 to 7.70"
compound=Cc1cc(F)ccc1COc1ccc(S(=O)(=O)N2C[C@H](O)CC(C)(C)[C@@H]2C(=O)NO)cc1 measurement_label=pIC50 result="> 8.00"
compound=C[C@@]1(O)CCCN(S(=O)(=O)c2ccc(OCc3ccc(F)cc3Cl)cc2)[C@H]1C(=O)NO measurement_label=pIC50 result="> 8.00"
compound=CC1(C)C[C@@H](O)CN(S(=O)(=O)c2ccc(OCc3cc(Cl)ccc3F)cc2)[C@H]1C(=O)NO measurement_label=pIC50 result="> 8.00"
compound=Cc1cc(F)ccc1COc1ccc(S(=O)(=O)N2CCC[C@@](C)(O)[C@@H]2C(=O)NO)cc1 measurement_label=pIC50 result="> 8.00"
compound=C[C@@]1(O)CCCN(S(=O)(=O)c2ccc(OCc3ccc(F)cc3F)cc2)[C@H]1C(=O)NO measurement_label=pIC50 result="> 8.00"
compound=CNC(=O)N1CCN(S(=O)(=O)c2ccc(OCc3cc(F)ccc3C)cc2)[C@@H](C(=O)NO)[C@@H]1C measurement_label=pIC50 result="> 8.00"
compound=Cc1ccccc1COc1ccc(S(=O)(=O)N2CCN(C(=O)CN)[C@@H](C)[C@@H]2C(=O)NO)cc1 measurement_label=pIC50 result="6.70 to 7.70"
compound=Cc1ccccc1COc1ccc(S(=O)(=O)N2CCC[C@](C)(O)[C@@H]2C(=O)NO)cc1 measurement_label=pIC50 result="> 8.00"
compound=Cc1c(F)cccc1COc1ccc(S(=O)(=O)N2C[C@H](O)CC(C)(C)[C@@H]2C(=O)NO)cc1 measurement_label=pIC50 result="> 8.00"
compound=Cc1ccc(Cl)cc1COc1ccc(S(=O)(=O)N2C[C@H](O)CC(C)(C)[C@@H]2C(=O)NO)cc1 measurement_label=pIC50 result="6.70 to 7.70"
compound=CC1(C)C[C@@H](O)CN(S(=O)(=O)c2ccc(OCc3ccc(Cl)cc3Cl)cc2)[C@H]1C(=O)NO measurement_label=pIC50 result="> 8.00"
compound=Cc1ccc(F)cc1COc1ccc(S(=O)(=O)N2CCC[C@@](C)(O)[C@@H]2C(=O)NO)cc1 measurement_label=pIC50 result="> 8.00"
